Would you kindly list cytotoxicity at 10 µM for each of these compounds?
Test: Toxicity liver stage against HepG2, at 10uM
Type: cell-based
Parameters: test concentration 10 uM, cell line HepG2-A16-CD81EGFP
Details: human, HepG2-A16-CD81EGFP cells; read-out: INHIBITION
Quick reminder: number only, in %, skip the unit.

**Q:** Query: cytotoxicity at 10 µM; subject: O=S(=O)(NC1=NCN(CCc2cccs2)CN1)c1ccc(Br)cc1
**A:** -2.35

**Q:** Query: cytotoxicity at 10 µM; subject: CCNC(=O)NCc1ccccc1NS(=O)(=O)c1ccccc1
**A:** 8.27

**Q:** Query: cytotoxicity at 10 µM; subject: Cc1noc(C)c1-c1cccc(C2CN(CC(=O)N(C)C)CCO2)n1 (stereo unspecified)
**A:** 0.025

**Q:** Query: cytotoxicity at 10 µM; subject: Cc1cncc(C2CCN(Cc3ccncc3)CC2)n1
**A:** -3.08

**Q:** Query: cytotoxicity at 10 µM; subject: c1ccc(-c2nc(CNC3CCc4ncnn4C3)co2)cc1 (stereo unspecified)
**A:** -8.6

**Q:** Query: cytotoxicity at 10 µM; subject: Cc1ccccc1C1CCCN1C(=O)CN1CC2(CCNCC2)OC1=O (stereo unspecified)
**A:** -11.1

**Q:** Query: cytotoxicity at 10 µM; subject: O=C(CN1CC(n2cccn2)C1)NCCCc1ccccc1
**A:** -9.51

**Q:** Query: cytotoxicity at 10 µM; subject: Cn1cc(C(=O)N2CC[C@@H]3[C@@H]2CCN3Cc2cccc(C#N)c2)cn1
**A:** -71.3

**Q:** Query: cytotoxicity at 10 µM; subject: CCn1c(Cn2cncn2)nnc1C1CCN(CCN)CC1
**A:** -0.111

**Q:** Query: cytotoxicity at 10 µM; subject: CN(CCn1ccnc1-c1ccccn1)S(C)(=O)=O
**A:** 12

**Q:** Query: cytotoxicity at 10 µM; subject: Cc1nonc1CC(=O)N1C[C@H]2CC[C@@H](C1)N(Cc1ccccc1)C2=O
**A:** -11.6

---

Assay: Toxicity liver stage against HepG2, at 10uM
Type: cell-based
Design: test concentration 10 uM, cell line HepG2-A16-CD81EGFP
Settings: human, HepG2-A16-CD81EGFP cells; read-out: INHIBITION
parameter: cytotoxicity at 10 µM (%)
Quick reminder: number only, in %, skip the unit.

**Q:** Query: cytotoxicity at 10 µM; subject: CCc1cc(N2C[C@H](C3CC3)[C@@H](N)C2)nc(N2CCCC2)n1
**A:** 0.334

**Q:** Query: cytotoxicity at 10 µM; subject: Cc1nc2c(c(=O)[nH]1)CN(C(=O)CC[C@@H]1CCCN3CCCC[C@H]13)C2
**A:** 17

**Q:** Query: cytotoxicity at 10 µM; subject: O=c1[nH]c(NC2CCCC2)nc2nccc(-c3cccs3)c12
**A:** -18.1

**Q:** Query: cytotoxicity at 10 µM; subject: COc1ccc(CN(Cc2cncn2C)CC2CCCO2)c(OC)c1 (stereo unspecified)
**A:** -4.48

**Q:** Query: cytotoxicity at 10 µM; subject: CC(C#N)CN(C)Cc1nc2c(cnn2C)c(=O)[nH]1 (stereo unspecified)
**A:** -6.45

**Q:** Query: cytotoxicity at 10 µM; subject: COCCn1cc(NC(=O)NCC(C)N2CCOCC2)cn1 (stereo unspecified)
**A:** 1.18

**Q:** Query: cytotoxicity at 10 µM; subject: CCCNC(=O)CN1CCN(Cc2csc(C(C)(C)C)n2)CC1
**A:** -7.88

**Q:** Query: cytotoxicity at 10 µM; subject: COCC1CN(Cc2cc(C)on2)Cc2cn(C)nc21 (stereo unspecified)
**A:** -6.07

**Q:** Query: cytotoxicity at 10 µM; subject: COC(=O)N1CCC2(CC1)CC(c1ccccc1)CN(C)C2 (stereo unspecified)
**A:** 2.09

**Q:** Query: cytotoxicity at 10 µM; subject: COc1ccccc1Oc1ncccc1CNC(=O)C1COC(=O)N1 (stereo unspecified)
**A:** -6.01

**Q:** Query: cytotoxicity at 10 µM; subject: CCc1nnc(Nc2cc(C)nc(C3CN(C(C)=O)CCO3)c2)s1 (stereo unspecified)
**A:** 4.74
